- Tested on: HeLa
- Assay details: Inhibition of cell growth in human HeLa cells by MTT assay
- Type: functional, cell-based
Measured quantity: IC50

Structure smiles: C=C1C2=C(C(=O)N1OC)[C@H](O)[C@@](C)(O)[C@@H](CCCCC)O2
Test target: HeLa
Measured quantity: IC50
Endpoint value: 6.1 µM
--
Structure smiles: C=C1C2=C(C(=O)N1OC)[C@@H](O)[C@@](C)(O)[C@H](CCCCC)O2
Test target: HeLa
Measured quantity: IC50
Endpoint value: 8.4 µM
--
Structure smiles: C=C1C2=C(C(=O)N1OC)[C@H](O)[C@@](C)(O)[C@H](CCCCC)O2
Test target: HeLa
Measured quantity: IC50
Endpoint value: 8.8 µM
--
Structure smiles: CCCCC[C@@H]1OC2=C(C(=O)N(OC)C2=O)[C@H](O)[C@@]1(C)O
Test target: HeLa
Measured quantity: IC50
Endpoint value: > 50 µM
--
Structure smiles: C=C1C2=C(C(=O)N1OC)[C@@H](O)[C@](C)(O)[C@@H](CCCCC)O2
Test target: HeLa
Measured quantity: IC50
Endpoint value: 4.2 µM
--
Structure smiles: O=[N+]([O-])c1ccc2c(c1)S(=O)(=O)C=C2
Test target: HeLa
Measured quantity: IC50
Endpoint value: 0.57 µM
--
Structure smiles: C=C1C2=C(C(=O)N1OC)[C@@H](O)[C@@](C)(O)[C@@H](CCCCC)O2
Test target: HeLa
Measured quantity: IC50
Endpoint value: 4.2 µM
